B1: Pistol ribozyme (parent)
chain: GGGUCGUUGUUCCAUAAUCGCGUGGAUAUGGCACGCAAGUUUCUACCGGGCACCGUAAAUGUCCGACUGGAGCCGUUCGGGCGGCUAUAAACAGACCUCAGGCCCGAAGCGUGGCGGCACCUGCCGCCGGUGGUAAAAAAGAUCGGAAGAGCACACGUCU

variants of: B1; experiment: aptazyme ON/OFF ratio, guanine; higher = stronger switching; co-transcriptional cleavage with and without guanine
# maps each entry to its aptazyme ON/OFF ratio
QUANTITY_KIND: aptazyme ON/OFF ratio

{"columns": ["MUTATION_NOTATION", "QUANTITY_KIND", "RECORDED_RESULT"],
 "data": [
  ["U7A U8G U10A U11G C12A C13G", "aptazyme ON/OFF ratio", 1.21],
  ["U7G U8C U10G U11G C12A C13G", "aptazyme ON/OFF ratio", 1.1],
  ["U8G G9C U11A C12G C13U", "aptazyme ON/OFF ratio", 1.07],
  ["U7A U8A U11G C12U", "aptazyme ON/OFF ratio", 1.27],
  ["U8C G9U U10A U11A C13U", "aptazyme ON/OFF ratio", 1.22],
  ["U7A U8G G9A U10C U11C C12A C13A", "aptazyme ON/OFF ratio", 1.09],
  ["U10A C12U C13G", "aptazyme ON/OFF ratio", 1.33],
  ["U7G U8A U10A U11C C12U C13U", "aptazyme ON/OFF ratio", 1.19],
  ["U7A U8A G9U U10A U11G C12G C13A", "aptazyme ON/OFF ratio", 1.23],
  ["U7G G9C U10A U11A C12G C13U", "aptazyme ON/OFF ratio", 1.27],
  ["U8A U10C U11A C12G C13U", "aptazyme ON/OFF ratio", 1.34],
  ["U7G U8G U10A U11G C12A C13U", "aptazyme ON/OFF ratio", 1.37],
  ["U8C C13U", "aptazyme ON/OFF ratio", 1.55],
  ["U7G U8A G9A U10A C12A", "aptazyme ON/OFF ratio", 1.17],
  ["U7G U8C G9C U10A U11G C12G C13G", "aptazyme ON/OFF ratio", 1.12]
]}
